Biological target: UniProt:P51686
Test: CCR9 FLIPR/FlexStation Assay (inhibition of TECK induced calcium mobilization)
Details: CCR9 antagonist activity; TECK induced calcium mobilization in CCR9-Flp-CHO cells stably over expressing human CCR9; rhTECK at EC70; read-out: Binding IC50
pIC50: −log10 of the molar value. Counter-ions that a name gives are not always drawn.
Property Name: pIC50

Example results:
compound="COC/C=C/c1cc(C(C)(C)C)ccc1S(=O)(=O)Nc1ccsc1C(=O)O [Example 55, disodium salt]" result="6.30 to 7.00"
compound="O=C(O)c1sccc1NS(=O)(=O)c1ccc(C(F)(F)F)cc1Br [Example 27, disodium salt]" result="≥ 7.00"
compound="O=C(O)c1sccc1NS(=O)(=O)c1ccc2c(c1)CCCC2 [Example 21, disodium salt]" result="6.30 to 7.00"
compound="CN(c1ccsc1C(=O)O)S(=O)(=O)c1ccc(C(C)(C)C)cc1 [Example 15, sodium salt]" result="< 6.30"
compound="CCC(C)(C)c1ccc(S(=O)(=O)Nc2ccsc2C(=O)O)cc1 [Example 18, sodium salt]" result="6.30 to 7.00"

May I ask what pIC50 has been recorded for CC(C)(C)c1ccc(S(=O)(=O)Nc2c(C(=O)O)sc3ccccc23)cc1 [Example 24, disodium salt] ?
6.30 to 7.00

Further, for CC(C)(C)c1ccc(S(=O)(=O)Nc2ccsc2C(=O)O)c(O)c1 [Example 9, trisodium salt] ?
6.30 to 7.00

Try the compound CCCCc1ccc(S(=O)(=O)Nc2ccsc2C(=O)O)cc1 [Example 38, disodium salt]
≥ 7.00

----------
Target: human CCR9 receptor (Homo sapiens)
Assay: CCR9 FLIPR/FlexStation Assay (inhibition of TECK induced calcium mobilization)
Settings: CCR9 antagonist activity; TECK induced calcium mobilization in CCR9-Flp-CHO cells stably over expressing human CCR9; rhTECK at EC70; read-out: Binding IC50
Procedure: Exemplary methods are described in US Publication Nos. US2004/0180892 and US2005/0049286, which are incorporated herein by reference. […] 10 mM stock compounds in DMSO are prepared and diluted in DMSO to 1 mM. […] Data is analyzed using XLfit3 software to calculate IC50 value of antagonist activity for each compound. CCR9 antagonist activity of exemplary compounds was determined using CCR9 FLIPR/FlexStation Assay as described in Section 4.4 and is provided in Table 1 below. […]
pIC50: −log10 of the molar value. Where a name gives a salt, the structure may show the parent alone.
Property Name: pIC50

The following compounds have reported results that may help.
compound="CC(C)(C)c1ccc(S(=O)(=O)Nc2c(C(=O)O)sc3ncccc23)cc1 [Example 26, disodium salt]" result="< 6.30"
compound="CC(C)(C)c1ccc(S(=O)(=O)Nc2ccsc2C(=O)O)c(/C=C/c2ccccc2)c1 [Example 7, disodium salt]" result="6.30 to 7.00"
compound="CC(=O)Oc1cc(C(C)(C)C)ccc1S(=O)(=O)Nc1ccsc1C(=O)O [Example 12, disodium salt]" result="6.30 to 7.00"

Below: the item to evaluate.
Param item = CC(C)(C)c1ccc(S(=O)(=O)Nc2ccsc2C(=O)O)c(/C=C/C2CC2)c1 [Example 52, disodium salt] ; retrieve measured pIC50.
≥ 7.00

----------
Entries and their IC50 values follow.
Target: human CCR9 receptor (Homo sapiens, UniProt P51686)
Sequence (P51686 whole entry): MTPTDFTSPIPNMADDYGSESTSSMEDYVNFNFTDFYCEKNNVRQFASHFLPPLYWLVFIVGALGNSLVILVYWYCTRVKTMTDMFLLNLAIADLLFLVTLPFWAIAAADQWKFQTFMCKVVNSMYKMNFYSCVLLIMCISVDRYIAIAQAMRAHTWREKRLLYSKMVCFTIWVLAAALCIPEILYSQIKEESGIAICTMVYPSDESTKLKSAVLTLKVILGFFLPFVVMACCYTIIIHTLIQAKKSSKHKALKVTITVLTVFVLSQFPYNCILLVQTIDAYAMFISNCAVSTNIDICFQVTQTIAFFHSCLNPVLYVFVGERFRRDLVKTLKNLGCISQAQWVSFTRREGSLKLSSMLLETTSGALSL
Assay: CCR9 FLIPR/FlexStation Assay (inhibition of TECK induced calcium mobilization)
Settings: CCR9 antagonist activity; TECK induced calcium mobilization in CCR9-Flp-CHO cells stably over expressing human CCR9; rhTECK at EC70; read-out: Binding IC50
Structures can show the parent of a compound that is named as a salt.

Sample answers from the record:
compound="CC(C)(C)c1ccc(S(=O)(=O)Nc2ccsc2C(=O)O)c(-c2ccoc2)c1 [Example 60, disodium salt]" system_under_test="human CCR9 receptor (Homo sapiens, UniProt P51686)" result="100 to 500 nM"
compound="CC1(C)CCC(C)(C)c2cc(S(=O)(=O)Nc3ccsc3C(=O)O)ccc21 [Example 49, disodium salt]" system_under_test="human CCR9 receptor (Homo sapiens, UniProt P51686)" result="> 500 nM"
compound="O=C(O)c1sccc1NS(=O)(=O)c1ccc2ccccc2c1 [Example 17, disodium salt]" system_under_test="human CCR9 receptor (Homo sapiens, UniProt P51686)" result="> 500 nM"
compound="CC(C)c1ccccc1-c1cccc(S(=O)(=O)Nc2ccsc2C(=O)O)c1 [Example 43, disodium salt]" system_under_test="human CCR9 receptor (Homo sapiens, UniProt P51686)" result="> 500 nM"

Attention now shifts to the item below.
IC50 lookup needed for O=C(O)c1sccc1NS(=O)(=O)c1ccc(N2CCOCC2)cc1 [Example 23, disodium salt] , thanks.
> 500 nM
